Source: patent US20260056186A1

# targetDesc: BAFF (PeproTech, Cat: 310-13) (UniProt Q9Y275 134-285)
# Sequence (Q9Y275 134-285 limits assumed): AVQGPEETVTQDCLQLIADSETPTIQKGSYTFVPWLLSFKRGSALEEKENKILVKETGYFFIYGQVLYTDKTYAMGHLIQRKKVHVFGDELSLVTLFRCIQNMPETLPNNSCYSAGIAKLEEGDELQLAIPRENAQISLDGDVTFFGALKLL
# testName: ELISA, BAFF coated at 1 ug/mL, anti-human Fc-HRP, OD450
measuredMetric: EC50 (nM)
Numbers only here, please. The scale is nM.

Past entries and their recorded results:
{"columns": ["binder", "resultUnit", "EC50"],
 "data": [
  ["B575701 (Fc fusion, TACI-BCMA fusion protein; also called TACI-d2-BCMA-ECD-Fc) LSCRKEQGKFYDHLLRDCISCASICGQHPKQCAYFCENKLRSPGMLQMAGQCSQNEYFDSLLHACIPCQLRCSSNTPPLTCQRYCNASVTNSVKGTNADKTHTCPPCPAPEAEGAPSVFLFPPKPKDTLMISRTPEVTCVVVDVSHEDPEVKFNWYVDGVEVHNAKTKPREEQYNSTYRVVSVLTVLHQDWLNGKEYKCKVSNKALPSSIEKTISKAKGQPREPQVYTLPPSRDELTKNQVSLTCLVKGFYPSDIAVEWESNGQPENNYKTTPPVLDSDGSFFLYSKLTVDKSRWQQGNVFSCSVMHEALHNHYTQKSLSLSPGK", "nM", 0.324],
  ["B575703 (Fc fusion, TACI-BCMA fusion protein; also called TACI-T2-BCMA-ECD-Fc) SRVDQEERFPQGLWTGVAMRSCPEEQYWDPLLGTCMSCKTICNHQSQRTCAAFCRSLSCRKEQGKFYDHLLRDCISCASICGQHPKQCAYFCENKLRSPVNLPPELMLQMAGQCSQNEYFDSLLHACIPCQLRCSSNTPPLTCQRYCNASVTNSVKGTNADKTHTCPPCPAPEAEGAPSVFLFPPKPKDTLMISRTPEVTCVVVDVSHEDPEVKFNWYVDGVEVHNAKTKPREEQYNSTYRVVSVLTVLHQDWLNGKEYKCKVSNKALPSSIEKTISKAKGQPREPQVYTLPPSRDELTKNQVSLTCLVKGFYPSDIAVEWESNGQPENNYKTTPPVLDSDGSFFLYSKLTVDKSRWQQGNVFSCSVMHEALHNHYTQKSLSLSPGK", "nM", 0.352]
]}

For the next question, use this binder.
### Prompt Value lookup for EC50; key = B575704 (Fc fusion, TACI-BCMA fusion protein; also called BCMA-ECD-TACI-T2-Fc) MLQMAGQCSQNEYFDSLLHACIPCQLRCSSNTPPLTCQRYCNASVTNSVKGTNASRVDQEERFPQGLWTGVAMRSCPEEQYWDPLLGTCMSCKTICNHQSQRTCAAFCRSLSCRKEQGKFYDHLLRDCISCASICGQHPKQCAYFCENKLRSPVNLPPELDKTHTCPPCPAPEAEGAPSVFLFPPKPKDTLMISRTPEVTCVVVDVSHEDPEVKFNWYVDGVEVHNAKTKPREEQYNSTYRVVSVLTVLHQDWLNGKEYKCKVSNKALPSSIEKTISKAKGQPREPQVYTLPPSRDELTKNQVSLTCLVKGFYPSDIAVEWESNGQPENNYKTTPPVLDSDGSFFLYSKLTVDKSRWQQGNVFSCSVMHEALHNHYTQKSLSLSPGK
### Response 0.187
